- Assay System: T1, human TL1A extracellular domain with N-terminal HIS and FLAG tag (human) (UniProt O95150)
- T1 sequence: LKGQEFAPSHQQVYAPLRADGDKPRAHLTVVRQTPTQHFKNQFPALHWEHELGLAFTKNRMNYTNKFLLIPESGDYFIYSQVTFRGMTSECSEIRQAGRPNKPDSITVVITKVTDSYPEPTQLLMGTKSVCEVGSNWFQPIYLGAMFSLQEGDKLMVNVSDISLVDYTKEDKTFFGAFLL
- Assay Protocol: cell-based or functional assay
Quick reference: Antibody IC50, TL1A induced caspase potency assay in TF-1 cells of the listed items.
Use µg/mL as the unit, but write only the number.

Take a look at these entries with their results.
## Task Return Antibody IC50, TL1A induced caspase potency assay in TF-1 cells for the following binder: 320-187 (antibody, human IgG1, name in Kabat numbering, V domains shown, human IgG1, lambda) VH: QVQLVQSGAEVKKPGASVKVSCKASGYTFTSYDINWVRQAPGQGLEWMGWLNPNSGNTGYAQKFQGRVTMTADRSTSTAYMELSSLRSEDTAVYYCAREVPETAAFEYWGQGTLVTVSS VL: QSVLTQPPSVSGAPGQRVTISCTSSSSDIGAGLGVHWYQQLPGTAPKLLIEGYYNRPSGVPDRFSGSKSGTSASLTITGLDPEDEGDYYCQSYDGTLSALFGGGTKLTVLG
## Result 0.02

## Task For the binder 320-241 (antibody, human IgG1, name in Kabat numbering, V domains shown, human IgG1, lambda) VH: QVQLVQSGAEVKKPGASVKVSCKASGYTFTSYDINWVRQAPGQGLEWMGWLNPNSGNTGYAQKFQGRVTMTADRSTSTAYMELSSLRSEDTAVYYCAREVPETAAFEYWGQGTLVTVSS VL: QSVLTQPPSVSGAPGQRVTISCTSSSSDAGAGLGVHWYQQLPGTAPKLLIEGYYNRPSGVPDRFSGSKSGTSASLTITGLLPEDEGDYYCQSYDGTLSALFGGGTKLTVLG , give its reported Antibody IC50, TL1A induced caspase potency assay in TF-1 cells.
## Result 0.02

Next:
## Task Specify reported Antibody IC50, TL1A induced caspase potency assay in TF-1 cells for the binder shown: 320-463 (antibody, human IgG1, name in Kabat numbering, V domains shown, human IgG1, lambda) VH: QVQLVQSGAEVKKPGASVKVSCKASGYTFTSYDIAWVRQAPGQGLEWMGWLNPNSGNTGYAQKFQGRVTMTADRSTSTAYMELSSLRSEDTAVYYCAREVPETAAFEYWGQGTLVTVSS VL: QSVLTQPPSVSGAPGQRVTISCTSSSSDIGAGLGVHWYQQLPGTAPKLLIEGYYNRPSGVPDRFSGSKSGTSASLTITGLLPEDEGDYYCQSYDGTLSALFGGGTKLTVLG
## Result 0.02
